assay: Inhibition of MC1 by NADH-DB reductase assay; parameters: species or system Homo sapiens
pIC50 reference
In textbook form, pIC50 equals minus log to base ten of the concentration in mol/L.

See these solved cases before continuing.
Suppose we examine the compound `CC(C)(C)c1ccc(CNc2ncnc3ccccc23)cc1` ; what pIC50 value has been reported? 6.62

Try the compound `CCCCc1ccc(COc2ncnc3ccccc23)cc1` 6.00

Try the compound CC(C)(C)c1ccc(CCOc2ncnc3ccccc23)cc1 [FENAZAQUIN] 8.40

Continuing:
Suppose we examine the compound CCCC(O)c1ccc(CCOc2ncnc3ccccc23)cc1 (centres undefined) ; what pIC50 value has been reported? 7.66

Try the compound `FCCCCCc1ccc(CCOc2ncnc3ccccc23)cc1` 7.95

Try the compound `OCCCCc1ccc(COc2ncnc3ccccc23)cc1` 6.38

Try the compound `OCCCCc1ccc(CCOc2ncnc3ccccc23)cc1` 7.65

Try the compound CCCC(F)c1ccc(CCOc2ncnc3ccccc23)cc1 (centres undefined) 7.71

Try the compound `CCCCc1ccc(CCOc2ncnc3ccccc23)cc1` 7.43
